Values were extracted from IntAct's records for PubMed 29039417.

B1: BBSome complex member BBS2 (Homo sapiens), Q9BXC9 (parent)
chain: MLLPVFTLKLRHKISPRMVAIGRYDGTHPCLAAATQTGKVFIHNPHTRNQHVSASRVFQSPLESDVSLLSINQAVSCLTAGVLNPELGYDALLVGTQTNLLAYDVYNNSDLFYREVADGANAIVLGTLGDISSPLAIIGGNCALQGFNHEGSDLFWTVTGDNVNSLALCDFDGDGKKELLVGSEDFDIRVFKEDEIVAEMTETEIVTSLCPMYGSRFGYALSNGTVGVYDKTSRYWRIKSKNHAMSIHAFDLNSDGVNELITGWSNGKVDARSDRTGEVIFKDNFSSAIAGVVEGDYRMDGHIQLICCSVDGEIRGYLPGTAEMRGNLMDTSAEQDLIRELSQKKQNLLLELRNYEENAKAELASPLNEADGHRGIIPANTRLHTTLSVSLGNETQTAHTELRISTSNDTIIRAVLIFAEGIFTGESHVVHPSIHNLSSSICIPIVPPKDVPVDLHLKAFVGYRSSTQFHVFESTRQLPRFSMYALTSLDPASEPISYVNFTIAERAQRVVVWLGQNFLLPEDTHIQNAPFQVCFTSLRNGGHLHIKIKLSGEITINTDDIDLAGDIIQSMASFFAIEDLQVEADFPVYFEELRKVLVKVDEYHSVHQKLSADMADHSNLIRSLLVGAEDARLMRDMKTMKSRYMELYDLNRDLLNGYKIRCNNHTELLGNLKAVNQAIQRAGRLRVGKPKNQVITACRDAIRSNNINTLFKIMRVGTASS
partner: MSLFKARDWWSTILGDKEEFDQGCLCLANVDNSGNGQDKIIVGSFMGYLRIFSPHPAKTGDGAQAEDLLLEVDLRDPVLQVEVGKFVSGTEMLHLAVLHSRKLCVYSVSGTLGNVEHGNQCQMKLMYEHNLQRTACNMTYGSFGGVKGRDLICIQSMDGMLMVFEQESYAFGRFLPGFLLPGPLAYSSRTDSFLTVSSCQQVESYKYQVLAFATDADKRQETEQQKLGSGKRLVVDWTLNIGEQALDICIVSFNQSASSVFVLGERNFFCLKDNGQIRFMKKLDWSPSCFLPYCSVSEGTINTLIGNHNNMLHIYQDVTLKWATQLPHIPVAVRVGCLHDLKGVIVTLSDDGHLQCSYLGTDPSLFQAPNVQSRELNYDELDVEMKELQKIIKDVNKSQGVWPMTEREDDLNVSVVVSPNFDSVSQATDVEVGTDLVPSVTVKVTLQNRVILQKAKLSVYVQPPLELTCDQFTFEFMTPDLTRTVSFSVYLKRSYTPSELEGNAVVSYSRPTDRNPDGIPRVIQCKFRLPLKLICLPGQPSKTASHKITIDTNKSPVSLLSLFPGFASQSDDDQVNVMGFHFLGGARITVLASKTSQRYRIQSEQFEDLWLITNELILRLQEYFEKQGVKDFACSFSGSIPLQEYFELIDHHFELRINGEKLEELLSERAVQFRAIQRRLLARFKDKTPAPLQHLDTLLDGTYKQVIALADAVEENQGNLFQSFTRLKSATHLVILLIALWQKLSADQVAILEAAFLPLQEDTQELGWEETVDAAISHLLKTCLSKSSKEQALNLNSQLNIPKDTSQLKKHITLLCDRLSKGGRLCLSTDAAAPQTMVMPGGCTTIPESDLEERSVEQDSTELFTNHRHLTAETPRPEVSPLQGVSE

# Variants of: B1
# applied.conditions: with pthb1_human BBS9, Q3SYG4
assay.readout: effect of a mutation on the interaction

- residue.change: "S618E"
  result: "with no effect"
- residue.change: "L654A"
  result: "with no effect"
- residue.change: "S405A"
  result: "with no effect"
- residue.change: "A419E"
  result: "with no effect"
- residue.change: "Q396K"
  result: "with no effect"
- residue.change: "V596E"
  result: "with no effect"
- residue.change: "I548K"
  result: "with no effect"
- residue.change: "R715K"
  result: "with no effect"

GET /value?item= V675K &field=effect of a mutation on the interaction returns with no effect

GET /value?item= H525E &field=effect of a mutation on the interaction returns with no effect

GET /value?item= S704A &field=effect of a mutation on the interaction returns with no effect

GET /value?item= R539E &field=effect of a mutation on the interaction returns with no effect

GET /value?item= N347K &field=effect of a mutation on the interaction returns with no effect

GET /value?item= R715A &field=effect of a mutation on the interaction returns with no effect

GET /value?item= G627E &field=effect of a mutation on the interaction returns with no effect

GET /value?item= R464A &field=effect of a mutation on the interaction returns with no effect

GET /value?item= S720K &field=effect of a mutation on the interaction returns with no effect

GET /value?item= P530K &field=effect of a mutation on the interaction returns with no effect

GET /value?item= Y498A &field=effect of a mutation on the interaction returns with no effect

GET /value?item= C662E &field=effect of a mutation on the interaction returns with no effect

GET /value?item= R506K &field=effect of a mutation on the interaction returns with no effect

GET /value?item= G425E &field=effect of a mutation on the interaction returns with no effect
